Target: Serine/threonine-protein kinase ULK1 (Homo sapiens)
Sequence (O75385 whole entry): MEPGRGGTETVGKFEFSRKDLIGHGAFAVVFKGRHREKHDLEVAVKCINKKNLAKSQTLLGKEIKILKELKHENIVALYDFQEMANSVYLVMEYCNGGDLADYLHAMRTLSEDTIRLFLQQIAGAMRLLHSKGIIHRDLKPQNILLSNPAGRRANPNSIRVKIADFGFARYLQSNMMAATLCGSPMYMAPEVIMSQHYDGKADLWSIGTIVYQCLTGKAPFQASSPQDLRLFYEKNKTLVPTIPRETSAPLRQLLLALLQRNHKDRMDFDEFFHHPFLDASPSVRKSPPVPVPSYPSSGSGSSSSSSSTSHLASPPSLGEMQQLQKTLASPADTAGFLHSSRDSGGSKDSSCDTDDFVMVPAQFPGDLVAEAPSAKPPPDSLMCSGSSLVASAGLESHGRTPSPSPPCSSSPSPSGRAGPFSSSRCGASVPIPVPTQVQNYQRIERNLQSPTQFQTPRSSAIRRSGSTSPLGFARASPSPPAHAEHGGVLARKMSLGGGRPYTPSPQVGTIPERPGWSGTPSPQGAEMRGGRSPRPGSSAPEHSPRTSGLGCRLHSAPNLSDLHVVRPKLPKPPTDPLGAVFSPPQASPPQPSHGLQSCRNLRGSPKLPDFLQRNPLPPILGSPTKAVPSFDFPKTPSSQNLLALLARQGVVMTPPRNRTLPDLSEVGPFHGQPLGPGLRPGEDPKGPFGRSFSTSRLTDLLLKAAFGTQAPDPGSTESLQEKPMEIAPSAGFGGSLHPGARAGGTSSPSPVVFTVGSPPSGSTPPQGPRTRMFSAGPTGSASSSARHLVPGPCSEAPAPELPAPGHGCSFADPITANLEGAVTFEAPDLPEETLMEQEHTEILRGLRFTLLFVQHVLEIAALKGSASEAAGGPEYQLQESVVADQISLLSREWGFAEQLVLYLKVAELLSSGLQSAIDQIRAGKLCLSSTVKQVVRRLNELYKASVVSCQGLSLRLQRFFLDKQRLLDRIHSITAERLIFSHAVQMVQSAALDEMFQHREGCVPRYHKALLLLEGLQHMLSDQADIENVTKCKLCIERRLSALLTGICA
pIC50: −log10 of the molar value.
Catalogue of pIC50 readings, one per entry.
quantity measured: pIC50

{"compound": "CN1C(=O)[C@@H](N2CCc3cn(Cc4ccccc4)nc3C2=O)COc2ccccc21", "test result": 6.00}
{"compound": "CN1C(=O)[C@@H](N2CCc3cn(CC4CCS(=O)(=O)CC4)nc3C2=O)COc2ccccc21 [TP-030n]", "test result": 6.00}

----------
Target: Serine/threonine-protein kinase Sgk1 (Homo sapiens, UniProt O00141)
Sequence (O00141 whole entry): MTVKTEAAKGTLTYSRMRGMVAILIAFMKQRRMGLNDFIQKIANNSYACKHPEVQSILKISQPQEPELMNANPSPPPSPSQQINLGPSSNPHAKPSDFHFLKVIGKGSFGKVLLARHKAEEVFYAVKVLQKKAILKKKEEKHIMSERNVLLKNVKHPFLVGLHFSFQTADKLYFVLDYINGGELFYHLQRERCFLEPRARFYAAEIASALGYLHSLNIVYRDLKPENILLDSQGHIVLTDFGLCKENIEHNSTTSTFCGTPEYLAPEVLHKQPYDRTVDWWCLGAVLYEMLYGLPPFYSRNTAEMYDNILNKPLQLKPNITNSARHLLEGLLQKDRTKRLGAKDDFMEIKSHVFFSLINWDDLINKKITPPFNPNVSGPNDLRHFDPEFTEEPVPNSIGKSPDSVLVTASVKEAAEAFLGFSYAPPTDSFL

{"compound": "CN1C(=O)[C@@H](N2CCc3cn(CC4CCS(=O)(=O)CC4)nc3C2=O)COc2ccccc21 [TP-030n]", "IC50 (nM)": 1000}

----------
Target: Casein kinase I isoform gamma-2 (Homo sapiens)
Sequence (P78368 whole entry, canonical isoform): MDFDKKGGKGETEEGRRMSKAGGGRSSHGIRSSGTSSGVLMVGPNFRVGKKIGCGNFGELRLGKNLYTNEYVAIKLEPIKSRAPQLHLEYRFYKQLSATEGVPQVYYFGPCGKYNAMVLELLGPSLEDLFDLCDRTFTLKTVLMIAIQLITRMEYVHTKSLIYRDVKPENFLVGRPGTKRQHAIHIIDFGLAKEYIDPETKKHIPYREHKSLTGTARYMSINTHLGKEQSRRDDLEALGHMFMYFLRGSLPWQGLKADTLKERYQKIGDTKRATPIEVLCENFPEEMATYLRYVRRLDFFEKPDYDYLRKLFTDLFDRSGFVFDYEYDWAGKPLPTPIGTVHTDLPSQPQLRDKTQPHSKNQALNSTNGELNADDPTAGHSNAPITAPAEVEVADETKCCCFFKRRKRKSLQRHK
Assay: CK1gamma2(C1G2LGI1) Takeda global kinase panel
pIC50: −log10 of the molar value.

{"compound": "CN1C(=O)[C@@H](N2CCc3cn(CC4CCS(=O)(=O)CC4)nc3C2=O)COc2ccccc21 [TP-030n]", "system tested": "Casein kinase I isoform gamma-2 (Homo sapiens)", "pIC50": 6.00}
{"compound": "CN1C(=O)[C@@H](N2CCc3cn(Cc4ccccc4)nc3C2=O)COc2ccccc21 [TP-030-1]", "system tested": "Casein kinase I isoform gamma-2 (Homo sapiens)", "pIC50": 6.00}
